Molecular target: human mGluR5a receptor (Homo sapiens, UniProt P41594)
Sequence (P41594 21-1180 isoform P41594-2 limits assumed): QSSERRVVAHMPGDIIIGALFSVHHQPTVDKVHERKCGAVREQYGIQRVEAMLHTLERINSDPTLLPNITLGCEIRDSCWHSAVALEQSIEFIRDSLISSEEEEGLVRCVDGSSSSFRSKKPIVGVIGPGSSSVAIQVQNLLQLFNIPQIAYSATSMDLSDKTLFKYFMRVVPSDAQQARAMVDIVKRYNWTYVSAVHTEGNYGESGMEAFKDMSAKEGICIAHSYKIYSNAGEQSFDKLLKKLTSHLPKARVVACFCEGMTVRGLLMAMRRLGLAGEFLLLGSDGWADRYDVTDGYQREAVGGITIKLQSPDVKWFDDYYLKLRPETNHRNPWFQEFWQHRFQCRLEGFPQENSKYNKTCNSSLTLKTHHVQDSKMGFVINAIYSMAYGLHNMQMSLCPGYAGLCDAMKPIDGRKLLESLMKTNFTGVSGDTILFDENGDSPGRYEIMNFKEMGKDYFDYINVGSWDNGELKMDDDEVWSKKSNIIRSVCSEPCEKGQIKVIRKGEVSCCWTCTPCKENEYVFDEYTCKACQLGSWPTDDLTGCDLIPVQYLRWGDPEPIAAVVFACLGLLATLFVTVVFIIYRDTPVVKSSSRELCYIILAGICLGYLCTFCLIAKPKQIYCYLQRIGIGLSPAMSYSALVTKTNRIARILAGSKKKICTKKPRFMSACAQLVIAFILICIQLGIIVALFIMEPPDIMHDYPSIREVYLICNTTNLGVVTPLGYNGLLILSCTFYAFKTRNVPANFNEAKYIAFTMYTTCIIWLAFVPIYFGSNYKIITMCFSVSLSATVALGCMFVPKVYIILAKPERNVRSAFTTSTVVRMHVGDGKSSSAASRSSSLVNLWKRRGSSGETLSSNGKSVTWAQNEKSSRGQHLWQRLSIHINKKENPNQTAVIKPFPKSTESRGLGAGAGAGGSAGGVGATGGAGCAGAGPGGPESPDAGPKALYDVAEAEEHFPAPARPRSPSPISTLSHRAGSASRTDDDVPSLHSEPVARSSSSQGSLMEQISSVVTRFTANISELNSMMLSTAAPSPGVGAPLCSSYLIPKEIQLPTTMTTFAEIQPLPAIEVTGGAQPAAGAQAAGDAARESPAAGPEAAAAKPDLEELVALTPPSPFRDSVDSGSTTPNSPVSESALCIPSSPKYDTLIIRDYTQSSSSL
Assay: Cell-based functional Ca2+ mobilization assay (FDSS), potentiation of glutamate EC20 response in H10H cell line
Details: HEK cells transfected with human mGluR5 (H10H), presence of glutamate EC20; concentration in mol/L
Each entry below carries its recorded pEC50.
Form: value (number only, do not type unit).

Field: example entries. Status: answers known.
1) O=C(c1ccc(F)cc1)N1CCn2nc(COc3ccccc3)c(F)c2C1; 6.26
2) O=C(c1ccc(F)cc1F)N1CCn2nc(COc3ccccc3)cc2C1; 6.68
3) O=C(c1cnccn1)N1CCn2nc(COc3cccc(F)c3)cc2C1; 5.52
4) O=C(c1cccc(F)c1)N1CCn2nc(COc3ccccc3)cc2C1; 6.77

// next entry
Query: Data request, read-out pEC50, for CC1Cn2nc(COc3ccccc3)cc2CN1C(=O)c1cccc(F)c1 (stereo not drawn) [Compound 47]
Result: 5.97

The measured values listed here are drawn from patent US9255103B2.
